test system: NCI-H522; test: In vitro cytotoxicity against human non-small cell lung NCI-H522 cancer cell line; assay type: functional
quantity-kind: GI50 (µM)
Please reply with the bare figure in µM and do not write the unit itself.

{"columns": ["structure", "quantity-kind", "value-unit", "recorded-number"],
 "data": [
  ["COc1cc2c(cc1O)N=C[C@@H]1C[C@H](F)CN1C2=O", "GI50", "µM", 0.41]
]}

# input for lookup
Task: # GI50 lookup, item COc1cc2c(cc1OCCCOc1cc3c(cc1OC)C(=O)N1C[C@@H](F)C[C@H]1C=N3)N=C[C@@H]1C[C@H](F)CN1C2=O
Output: 1.88

* * *

tested on: SW-620; assay: In vitro cytotoxicity against human colon SW-620 cancer cell line; assay type: functional
Overview of recorded GI50 for various molecules
Record the value in µM, omitting the unit from your answer.

{"columns": ["structure", "measured-on", "quantity-kind", "recorded-number"],
 "data": [
  ["COc1cc2c(cc1O)N=C[C@@H]1C[C@H](F)CN1C2=O", "SW-620", "GI50", 1.19],
  ["COc1cc2c(cc1OCCCCCOc1cc3c(cc1OC)C(=O)N1C[C@@H](F)C[C@H]1C=N3)N=C[C@@H]1C[C@H](F)CN1C2=O", "SW-620", "GI50", 0.02]
]}

Task: API: value(readout=GI50, system=SW-620) for record COc1cc2c(cc1OCCCOc1cc3c(cc1OC)C(=O)N1C[C@@H](F)C[C@H]1C=N3)N=C[C@@H]1C[C@H](F)CN1C2=O
Output: 4.2

* * *

Listing of entries alongside the reported ΔTm.
system: Nucleic Acid; assay: DNA binding ability by thermal denaturation studies using calf thymus DNA after incubation at 37 degree C for 36 hour; type: nucleic-acid assay; details: Bos taurus
Only the number, expressed in °C, is required.

{"columns": ["structure", "quantity-kind", "recorded-number"],
 "data": [
  ["COc1cc2c(cc1OCCCCCOc1cc3c(cc1OC)C(=O)N1C[C@@H](F)C[C@H]1C=N3)N=C[C@@H]1C[C@H](F)CN1C2=O", "ΔTm", 17.4]
]}

Task: Returns the measured ΔTm for the input compound. Input: COc1cc2c(cc1OCc1ccccc1)N=C[C@@H]1C[C@H](F)CN1C2=O
Output: 2.5

Task: Any idea what its ΔTm is? The compound is COc1cc2c(cc1O)N=C[C@@H]1C[C@@H](F)CN1C2=O
Output: 2.25

Task: Fill in: ΔTm of COc1cc2c(cc1OCCCOc1cc3c(cc1OC)C(=O)N1C[C@@H](F)C[C@H]1C=N3)N=C[C@@H]1C[C@H](F)CN1C2=O is ___
Output: 6.16

Task: Returns the measured ΔTm for the input compound. Input: COc1cc2c(cc1O)N=C[C@@H]1C[C@H](F)CN1C2=O
Output: 2.2

Task: I'd like to know its ΔTm. The compound in question is COc1cc2c(cc1OCCCCOc1cc3c(cc1OC)C(=O)N1C[C@@H](F)C[C@H]1C=N3)N=C[C@@H]1C[C@H](F)CN1C2=O
Output: 13.8

* * *

test system: SF-295; test: In vitro cytotoxicity against human CNS SF-295 cancer cell line; type: functional
quantity-kind: GI50 (nM)
Give just the numeric value; nM need not be written.

{"columns": ["structure", "measured-on", "GI50 / nM"],
 "data": [
  ["COc1cc2c(cc1OCCCOc1cc3c(cc1OC)C(=O)N1C[C@@H](F)C[C@H]1C=N3)N=C[C@@H]1C[C@H](F)CN1C2=O", "SF-295", 1960],
  ["COc1cc2c(cc1OCc1ccccc1)N=C[C@@H]1C[C@H](F)CN1C2=O", "SF-295", 30]
]}

Shifting focus to the molecule that follows.
Task: Fill blank: measured GI50 of the molecule COc1cc2c(cc1O)N=C[C@@H]1C[C@H](F)CN1C2=O is ____.
Output: 320

* * *

This section presents compounds with their documented ΔTm values.
tested on: Nucleic Acid; test: DNA binding ability by thermal denaturation studies using calf thymus DNA after incubation at 37 degree C for 0 hour; format: nucleic-acid assay; details: Bos taurus
Give a bare numeral; the unit °C is implied.

Observe how each entry below is paired with its result.
{"columns": ["structure", "ΔTm / °C"],
 "data": [
  ["COc1cc2c(cc1OCCCCOc1cc3c(cc1OC)C(=O)N1C[C@@H](F)C[C@H]1C=N3)N=C[C@@H]1C[C@H](F)CN1C2=O", 4.6],
  ["COc1cc2c(cc1OCc1ccccc1)N=C[C@@H]1C[C@H](F)CN1C2=O", 1.1],
  ["COc1cc2c(cc1OCCCCCOc1cc3c(cc1OC)C(=O)N1C[C@@H](F)C[C@H]1C=N3)N=C[C@@H]1C[C@H](F)CN1C2=O", 14.2]
]}

Task: Can you look up ΔTm on Nucleic Acid for COc1cc2c(cc1O)N=C[C@@H]1C[C@@H](F)CN1C2=O ?
Output: 0.6

Task: ΔTm of COc1cc2c(cc1O)N=C[C@@H]1C[C@H](F)CN1C2=O on Nucleic Acid?
Output: 0.3

Task: Which ΔTm is reported with Nucleic Acid for this entry: COc1cc2c(cc1O)N=C[C@@H]1CCCN1C2=O ?
Output: 0.3

Task: Request - read-out ΔTm | tested on Nucleic Acid | compound COc1cc2c(cc1OCCCOc1cc3c(cc1OC)C(=O)N1C[C@@H](F)C[C@H]1C=N3)N=C[C@@H]1C[C@H](F)CN1C2=O
Output: 3.1

Task: Recorded ΔTm for COc1cc2c(cc1OCCCOc1cc3c(cc1OC)C(=O)N1CCC[C@H]1C=N3)N=C[C@@H]1CCCN1C2=O with Nucleic Acid, please?
Output: 10.2

* * *

test system: SF-268; experiment: In vitro cytotoxicity against human CNS SF-268 cancer cell line; assay type: functional
quantity-kind: GI50 (nM)
# number only, unit nM dropped from output

{"columns": ["structure", "GI50, nM"],
 "data": [
  ["COc1cc2c(cc1OCc1ccccc1)N=C[C@@H]1C[C@H](F)CN1C2=O", 10],
  ["COc1cc2c(cc1OCCCOc1cc3c(cc1OC)C(=O)N1C[C@@H](F)C[C@H]1C=N3)N=C[C@@H]1C[C@H](F)CN1C2=O", 2200]
]}

Next item in the queue.
Task: Query: GI50; subject: COc1cc2c(cc1O)N=C[C@@H]1C[C@H](F)CN1C2=O
Output: 350

* * *

The reader will find reported ΔTm values listed item by item below.
system: Nucleic Acid; assay: DNA binding ability by thermal denaturation studies using calf thymus DNA after incubation at 37 degree C for 18 hour; type: nucleic-acid assay; details: Bos taurus

Examples with their reported ΔTm follow.
{"columns": ["structure", "measured-on", "ΔTm"],
 "data": [
  ["COc1cc2c(cc1OCCCOc1cc3c(cc1OC)C(=O)N1C[C@@H](F)C[C@H]1C=N3)N=C[C@@H]1C[C@H](F)CN1C2=O", "Nucleic Acid", "4.9 °C"],
  ["COc1cc2c(cc1OCCCCCOc1cc3c(cc1OC)C(=O)N1C[C@@H](F)C[C@H]1C=N3)N=C[C@@H]1C[C@H](F)CN1C2=O", "Nucleic Acid", "16 °C"],
  ["COc1cc2c(cc1O)N=C[C@@H]1C[C@H](F)CN1C2=O", "Nucleic Acid", "1 °C"],
  ["COc1cc2c(cc1OCCCCOc1cc3c(cc1OC)C(=O)N1C[C@@H](F)C[C@H]1C=N3)N=C[C@@H]1C[C@H](F)CN1C2=O", "Nucleic Acid", "12.3 °C"],
  ["COc1cc2c(cc1OCc1ccccc1)N=C[C@@H]1C[C@H](F)CN1C2=O", "Nucleic Acid", "2 °C"],
  ["COc1cc2c(cc1O)N=C[C@@H]1C[C@@H](F)CN1C2=O", "Nucleic Acid", "1.5 °C"]
]}

Task: If you can, please state the reported ΔTm value of COc1cc2c(cc1O)N=C[C@@H]1CCCN1C2=O .
Output: 0.7 °C

* * *

tested on: SR; assay: In vitro cytotoxicity against human leukemia SR cancer cell line; assay type: functional
quantity-kind: GI50 (nM)
Only the number, expressed in nM, is required.

{"columns": ["structure", "recorded-number"],
 "data": [
  ["COc1cc2c(cc1O)N=C[C@@H]1C[C@H](F)CN1C2=O", 200]
]}

Now consider a different molecule.
Task: Param item = COc1cc2c(cc1OCCCOc1cc3c(cc1OC)C(=O)N1C[C@@H](F)C[C@H]1C=N3)N=C[C@@H]1C[C@H](F)CN1C2=O ; retrieve measured GI50.
Output: 1540
